Reference source for all entries: patent US9416141B2

Recorded Emax at 0.9 µM, one value per entry.
- System: hair cells
- Method notes: Hair cell toxicity assay in zebrafish (neomycin-induced hair cell death, DASPEI staining of neuromasts)
- Format: in vivo
- Condition notes: Danio rerio, maximum observed @ 0.9 μM test compound; 200 micromolar neomycin; read-out: Max HC Protection (HCmax, % hair cell survival)
Counter-ions that a name gives are not always drawn.
// note: answer is a bare numeric in %

Consider the worked cases shown below.
NC(=O)c1c(NC(=O)Nc2ccc(Cl)cc2)sc2c1CCC(=O)C2 | 15
CCN1CCc2c(sc(NC(=O)Nc3ccc(Cl)cc3)c2-c2nc(C)no2)C1 [Example 103, hydrochloride] | 12
CCN1CCc2c(sc(NC=O)c2C(N)=O)C1 [Example 108, hydrochloride] | 13
COC(=O)C(C)(C)CN1C2CCC1c1sc(NC(=O)Nc3ccc(Cl)cc3)c(C(N)=O)c1C2 (racemic) [Example 134, hydrochloride] | 11
C[N+]1(CC2CCCCC2)CCc2c(sc(NC(=O)Nc3ccc(Cl)cc3)c2C(N)=O)C1 (stereo not drawn) | 78

Could you now look at the following molecule, please?
Lab request: please report Emax at 0.9 µM under test system hair cells for CC[N+]1(CC2CCCCC2)CCc2c(sc(NC(=O)Nc3ccc(Cl)cc3)c2C(N)=O)C1 (stereo not drawn) [Example 195, trifluoroacetate]
74
